assay_target: hGIPR (Homo sapiens, UniProt P48546)
Construct: expressed in transfected cells; host or cells: CHO cells carrying a CRE-luciferase reporter gene
Sequence (P48546 22-466): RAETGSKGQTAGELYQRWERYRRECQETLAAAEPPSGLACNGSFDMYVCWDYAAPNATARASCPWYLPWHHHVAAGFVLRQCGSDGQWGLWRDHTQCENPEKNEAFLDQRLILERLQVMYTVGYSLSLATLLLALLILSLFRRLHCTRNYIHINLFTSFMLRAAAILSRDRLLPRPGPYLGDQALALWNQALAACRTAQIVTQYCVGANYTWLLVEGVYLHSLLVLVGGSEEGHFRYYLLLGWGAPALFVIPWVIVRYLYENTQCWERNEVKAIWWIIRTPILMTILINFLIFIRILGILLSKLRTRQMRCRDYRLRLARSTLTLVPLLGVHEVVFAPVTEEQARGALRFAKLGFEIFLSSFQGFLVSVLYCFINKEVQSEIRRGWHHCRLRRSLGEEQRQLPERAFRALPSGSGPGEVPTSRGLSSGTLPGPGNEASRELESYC
assay_name: hGIPR CreLuc reporter gene assay in 0.5% and 100% plasma
Format: cell-based
measurement_parameters: CreLuc reporter gene assay, 0.5% human plasma; read-out: hGIPR 0.5% hP
Starred links: 1 amine or outer side, 2 acyl side, 3 side chain; linkers in the order of their positions; H or OH if unused. Non-standard residues stand in square brackets, D forms with d. Groups on a side chain read outwards from the residue. No end group written: not given here. *: point of attachment. C20 diacid = O=C(O)CCCCCCCCCCCCCCCCCCC(=O)*; C18 diacid = O=C(O)CCCCCCCCCCCCCCCCC(=O)*; γGlu = O=C(O)[C@H](CCC(=O)[*:2])N[*:1]; εLys = N[C@@H](CCCCN[*:1])C(=O)[*:2]; AEEA = NCCOCCOCC(=O)O; Aib = CC(C)(N)C(=O)O
observable: EC50 (pM)
Give the value, in units of pM, as a plain number.

Please review the following examples before continuing.
[
  {
    "substance": "Y[Aib]EGTFTSDYSI[Aib]LEKQAQ[Aib]AFVEWLIK([AEEA-AEEA-γGlu-γGlu-γGlu-C18 diacid])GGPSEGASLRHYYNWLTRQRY-NH2 [Compound 299]",
    "unit_of_measurement": "pM",
    "EC50": 400
  },
  {
    "substance": "H-Y[Aib]EGTFTSDYSI[Aib]LEKQAQ[Aib]AFVEWLIK([εLys-γGlu-γGlu-γGlu-γGlu-γGlu-γGlu-C20 diacid])GGPSTGASLRHYYNWLTRQRY-NH2 [Compound 244]",
    "unit_of_measurement": "pM",
    "EC50": 320
  }
]

Input line: I'd like to know its EC50. The substance in question is H-Y[Aib]EGTFTSDYSI[Aib]LEKQAQ[Aib]AFVEWLIK([γGlu-γGlu-γGlu-γGlu-γGlu-γGlu-C20 diacid])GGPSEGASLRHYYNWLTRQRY-NH2 [Compound 305]
Output line: 650

Attribution: patent US20240247080A1
